Recorded solubility kinetic for the following molecules
settings: buffer; pH 7.4; 6.0 h; 150.0 µM

Solved entries:
CCCc1ccc(NC(=O)c2ccc3c(c2)NC(=O)CS3)cc1 : < 1 µg/mL
COc1cccc(CNc2ccc(S(=O)(=O)Nc3ccc(N4CCNCC4)cc3)cc2)c1O : 58.3 µg/mL
Cc1ccc(S(=O)(=O)Nc2ccccc2C(=O)Nc2ccc(-c3ccccc3)cc2)cc1 : < 1 µg/mL

Would you kindly share the measured solubility kinetic for COc1ccc(-c2nc3ccccc3c(=O)n2Cc2ccccc2)cc1COc1ccc(NC(C)=O)cc1 ?
< 1 µg/mL

// repeat for CC1CCc2cc(F)ccc2N1C(=O)CSc1nnc2c(n1)[nH]c1ccccc12 (stereo not given) and report
< 1 µg/mL

* * *

settings: buffer; pH 7.4; 6.0 h; 150.0 µM
value.kind: solubility kinetic (µg/mL)
Return type: number; implicit unit µg/mL.

COc1ccc(C2Nc3ccccc3C(=O)N2Cc2ccco2)cc1 (stereo not given) : 12.2
COc1cc2ncnc(Oc3cccc(NC(=O)Nc4cc(C(C)(C)C(F)(F)F)on4)c3)c2cc1OC : 8.62

Next compound, solubility kinetic to be filled in.
Query (compound): CCOC(=O)c1nn(-c2ccccc2)c(=O)c2c(N)scc12 ; field requested: solubility kinetic
4.02

* * *

settings: buffer; pH 7.4; 6.0 h; 150.0 µM
value.kind: solubility kinetic

Some solved cases for reference:
CCN(CC)C(=O)c1ccc(O)c(OC)c1 : 27.3 µg/mL
CSc1nc(N)cc(Oc2ccc(-c3nc(Nc4cccc(C(F)(F)F)c4)n[nH]3)cc2)n1 : < 1 µg/mL
Cc1ccc(S(=O)(=O)Nc2cc3c(cc2C(=O)Nc2nc(-c4ccccc4)cs2)OCO3)cc1 : < 1 µg/mL
Cc1cc(-c2nnc3n2CCCCC3)c(C)n1-c1ccc([N+](=O)[O-])cc1 : > 52 µg/mL
Cc1cccc(C(=O)Nc2ccc(N3CCC(N4CCCCC4)CC3)c(C(=O)O)c2)c1 : > 62 µg/mL
COCCn1ccc2c(C3=CCOCC3)nc(-c3cccc(NC(C)=O)c3)cc21 : > 87 µg/mL
Cc1cc(-c2nnc3n2CCCCC3)c(C)n1-c1ccc(Cl)c(Cl)c1 : 31.6 µg/mL
Cc1ccc(-c2ccc(CNc3nc(-c4ccccc4C(C)C)ncc3F)cc2)cn1 : < 1 µg/mL
COc1ccc(OC)c(Nc2c3c(nc4ccccc24)CCC3)c1 : > 47 µg/mL

Give its solubility kinetic value. Item: COc1cccc(CNc2ccc(S(=O)(=O)Nc3nc4ccccc4[nH]3)cc2)c1O
2.59 µg/mL

* * *

Below, each entry is listed with its recorded solubility kinetic.
conditions: buffer; pH 7.4; 6.0 h; 150.0 µM

NC(=O)C1CCN(c2cc(-c3ccc4c(c3)OCCCO4)ncn2)CC1 : > 52 µg/mL

Then there is this molecule:
Recorded solubility kinetic of CCOc1cc2c(cc1OCC)CN(C(=O)c1cc3sccc3n1Cc1ccccc1)CC2 , please.
< 1 µg/mL

* * *

details: buffer; pH 7.4; 6.0 h; 150.0 µM
// reported solubility kinetic per item
Entry rule: numbers only, all in µg/mL.

NC(=O)C1CCN(c2nc(-c3ccc4c(c3)OCCCO4)cs2)CC1 : 34.7
CNc1ncc(-c2cccc3ccccc23)o1 : 25.4
Cc1ccc(-c2csc(N3CCC(C(N)=O)CC3)n2)cc1 : 32.9

Reported solubility kinetic for NC(=O)C1CCN(c2nc(-c3cccc4ccccc34)cs2)CC1 : what is it?
38.3

The reported numbers originate from PubChem BioAssay AID1645848.
